Assay: murine CD8 T cell vesicle adhesion modulation – mouse 2C CD8+ T cells, flow cytometry, primary screen (AID 2052);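 also: values below 100% mean blocked vesicle binding to the CD8+ T cells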
Details: 2C CD8+ T cell-vesicle binding, at 7 µM, stronger effect = lower value
Hit rate of the full screen: of about 330,000 compounds, about 220 (0.067%) were called active. Only a selection was taken, and actives are over-represented in it overall.
Readout kind: response (vesicle binding) (%)
The reply should contain only the number, in %.

Input: May I ask what response (vesicle binding) has been recorded for CC1(C)C[C@H]2C3=CCC4[C@@]5(C)CC[C@H](O)[C@](C)(CO)C5CC[C@@]4(C)[C@]3(C)C[C@@H](O)[C@@]2(CO)[C@@H](O)[C@@H]1O (some centres undefined) ?
Output: 534

Input: // query: Nc1ccc(OCC(O)C[n+]2ccc(CCS(=O)(=O)[O-])cc2)cc1 (centres undefined)
Output: 319

Input: And COc1ccccc1C(=O)Nc1ccnn1C1CCN(C(=O)C(C)(C)C)CC1 ?
Output: 266

More entries:
Input: Record request: response (vesicle binding) value, item Cc1cc(Br)ccc1NC(=O)CN(C)C(=O)CN1C(=O)NC2(CCCC2)C1=O
Output: 215
